Data origin: the OligoGym collection

target_entity: KIAA1279; further: reference of the scale not given here
assay_explanation: pooled miR-30 sensor sort-seq; sequence = guide strand
condition_summary: shRNA
measured_parameter: sensor-assay potency score (higher = more potent)
Numbers only.

Observe how each entry below is paired with its result.
# chain, endpoint_value
measured = [
    ("TAAAGCTCTAAGTTCAGACTGT", 0.562),
    ("TTAATAGGAAACAAGCATCTAA", 0.679),
    ("TAGGTTATGAGTATAAACCTTT", -0.128),
    ("TATACTGATTATATAGTGCTTC", 0.382),
    ("TTCTTTGATGATAAAGCTCTGG", -0.681),
]

Proceed to the following item.
IN: GET /values?readout=sensor-assay potency score (higher = more potent)&item= `TTTTTGATCTCTCTTGTTCAGT`
OUT: -0.606
